assay: soluble on expression in E. coli; label from the status in PepcDB or PDB records

{"sequence_chain": "WCAETAPEPQVEPEPEVLPEPDRGSATPAELGINSLDIVRLANRIEDATGTRPSLATLLNQPWQESLAMVEVLEPRPALASEQKPELVPDRDREVIDVVGAGMALGARIRAEVPISEEPVEDQFVQVGQWLKQLRAVVEPAGCMQVTPPSGNILCAIDITPGEKADVSDHAPLTPLQLGYLVGRADTWLGEPVAPHYYTEVEVADLDVVALQRALDEVVRAHPALMLGVHDDGNQGLSEALRPRLVVTDLRDHPDPDGELERIRAVGCAGVSDPLGTAWFQLRATLLPTAVR", "soluble on expression in E. coli": "not soluble"}
{"sequence_chain": "MGHHHHHHSHGLPLWVSERILQQINQLTHYEPVIGIMGKTGAGKSSLCNALFAGEVSPVSDVAACTRDPLRFRLQIGEHFMTIVDLPGVGESGVRDTEYAALYREQLPRLDLILWLIKADDRALATDEHFYRQVIGEAYRHKMLFVISQS", "soluble on expression in E. coli": "not soluble"}
